Assay: Clinical Trial #12: PK after oral administration of edaravone solution and suspension
Conditions: male, human, in vivo, Cohort S1, 60 mg, Solution, fasting (N = 6), mean, read-out: AUC0-24 h
Protocol: Whether or not there is an influence on pharmacokinetics by administering in forms of a solution and a suspension when administering edaravone orally was evaluated. Specifically, Clinical Trial #12 described below was conducted on healthy adult Japanese male subjects. Administration during the trial period was a single oral administration. […]

Record Smiles	Result Unit	AUC(0-t)
CC1=NN(c2ccccc2)C(=O)C1	ng·h/mL	816

----------
assay: Clinical study #9: PK of edaravone oral formulation (formula #3) in healthy adults (reference group), oral, fasted; format: in vivo; conditions: both sexes, human, plasma, 105 mg oral, healthy (n = 42), mean, before weight correction
Assay Endpoint: AUC(0-inf) (ng·h/mL)

Record Smiles	Assay Endpoint	Observed
CC1=NN(c2ccccc2)C(=O)C1	AUC(0-inf)	1760

----------
tested on: P-gp and BCRP; assay: Caco-2 transcellular transport study, efflux ratio with and without P-gp and BCRP inhibitors; format: in vitro ADME; conditions: human, Caco-2; 10 μmol/L, no inhibitor

Record Smiles	efflux ratio at 10 μmol/L
CC1=NN(c2ccccc2)C(=O)C1	0.9

----------
test: Clinical Trial #12: PK after oral administration of edaravone solution and suspension; conditions: male, human, in vivo, Cohort S2, 120 mg, Suspension, fasting (N = 6), mean, read-out: AUC0-24 h
Assay Endpoint: AUC(0-t) (ng·h/mL)

Record Smiles	Result Unit	Observed
CC1=NN(c2ccccc2)C(=O)C1	ng·h/mL	2240

----------
assay: Clinical study #3: PK of edaravone oral formulation (formula #3), fasted vs after high-fat, standard or light meal; analysis of variance; format: in vivo, human; conditions: male, human, plasma, po, 105 mg, 105 mg oral, formula #3, fasted, mean (n = 16)
Assay Endpoint: Tmax (min)

Molecule	Observed
CC1=NN(c2ccccc2)C(=O)C1 [Edaravone, 3-methyl-1-phenyl-2-pyrazolin-5-one]	22.8

----------
experiment: Clinical study #10: PK of edaravone oral formulation (formula #7, 120 mg), standard meal 30 minutes after administration vs fasted; assay type: in vivo, human; conditions: male, human, plasma, po, 120 mg, 120 mg oral, formula #7, fasted (n = 6), mean
Assay Endpoint: Cmax (ng/mL)

Record Smiles	Result Unit	Observed
CC1=NN(c2ccccc2)C(=O)C1	ng/mL	1740

----------
experiment: Clinical study #11: PK of edaravone oral formulation (formula #3) via nasopharyngeal gastric tube vs oral in healthy adults; assay type: in vivo, human; settings: human, plasma, other: nasopharyngeal gastric tube (NG tube); formula #3 (105 mg), Nasopharyngeal gastric tube, fasted (N = 36), mean

Record Smiles	half-life, h
CC1=NN(c2ccccc2)C(=O)C1	13.5

----------
experiment: Clinical study #3: PK of edaravone oral formulation (formula #3), fasted vs after high-fat, standard or light meal; analysis of variance; format: in vivo, human; conditions: male, human, plasma, po, 105 mg, 105 mg oral, formula #3, 8 h after high-fat meal, mean (n = 16); read-out: AUC0-∞

Compound	AUC(0-inf)
CC1=NN(c2ccccc2)C(=O)C1 [Edaravone, 3-methyl-1-phenyl-2-pyrazolin-5-one]	2210 ng·h/mL

----------
assay: Clinical study #3: PK of edaravone oral formulation (formula #3), fasted vs after high-fat, standard or light meal; analysis of variance; assay type: in vivo, human; details: male, human, plasma, po, 105 mg, 105 mg oral, formula #3, 2 h after light meal, mean (n = 16)

Compound	half-life / h
CC1=NN(c2ccccc2)C(=O)C1 [Edaravone, 3-methyl-1-phenyl-2-pyrazolin-5-one]	7.31

----------
experiment: Clinical study #10: PK of edaravone oral formulation (formula #7, 120 mg), standard meal 30 minutes after administration vs fasted; type: in vivo, human; conditions: male, human, plasma, po, 120 mg, 120 mg oral, formula #7, 30 min before low-fat meal (n = 6), mean
Assay Endpoint: half-life (min)

Molecule	Assay Endpoint	Observed
CC1=NN(c2ccccc2)C(=O)C1 [Edaravone, 3-methyl-1-phenyl-2-pyrazolin-5-one]	half-life	276

----------
Assay: Clinical study #9: PK of edaravone oral formulation (formula #3) in healthy adults (reference group), oral, fasted
Type: in vivo
Conditions: both sexes, human, plasma, 105 mg oral, healthy (n = 42), mean, before weight correction
Method: On the other hand, a clinical study #9 shown below was conducted in healthy adult male and female subjects (42 in total) (the reference group). […] Then, blood samples were each collected before the administration, and 5 minutes, 15 minutes, 30 minutes, 45 minutes, 1 hour, 1.5 hours, 2 hours, 4 hours, 6 hours, 8 hours, 10 hours, 12 hours, 24 hours, 36 hours, and 48 hours after the administration, and the concentrations of unchanged edaravone in plasma were measured. […]

Molecule	Cmax
CC1=NN(c2ccccc2)C(=O)C1 [Edaravone, 3-methyl-1-phenyl-2-pyrazolin-5-one]	1660 ng/mL

----------
experiment: Clinical study #6: PK of edaravone oral formulation (formula #3) via PEG tube in ALS patients; assay type: in vivo, human; conditions: human, plasma; 105 mg via PEG tube, ALS patients, corrected to 70 kg; read-out: AUC after weight correction, mean value±standard error

Molecule	AUC, ng·h/mL
CC1=NN(c2ccccc2)C(=O)C1 [Edaravone, 3-methyl-1-phenyl-2-pyrazolin-5-one]	1700

----------
Test: Clinical study #3: PK of edaravone oral formulation (formula #3), fasted vs after high-fat, standard or light meal; analysis of variance
Assay type: in vivo, human
Conditions: male, human, plasma, po, 105 mg, 105 mg oral, 8 hours after high-fat meal, analysis of variance; read-out: Cmax Least-square mean
Description: Effects of meal consumption before administration of the edaravone oral formulation on the pharmacokinetics of edaravone were evaluated. Specifically, clinical studies #1, #2, and #3 described below were conducted on separate days in Japanese healthy adult male subjects. […]

Record Smiles	Cmax / ng/mL
CC1=NN(c2ccccc2)C(=O)C1	2190

----------
Experiment: Clinical study #2: PK of edaravone oral formulation (formula #2), fasted vs 4 h after high-fat meal
Assay type: in vivo
Settings: male, human, plasma, 100 mg, 100 mg oral, formula #2, 4 h after high-fat meal, mean (n = 9)
Protocol: Effects of meal consumption before administration of the edaravone oral formulation on the pharmacokinetics of edaravone were evaluated. Specifically, clinical studies #1, #2, and #3 described below were conducted on separate days in Japanese healthy adult male subjects. […]
Assay Endpoint: AUC(0-inf) (ng·h/mL)

Record Smiles	Assay Endpoint	Observed
CC1=NN(c2ccccc2)C(=O)C1	AUC(0-inf)	1250

----------
assay: Clinical study #3: PK of edaravone oral formulation (formula #3), fasted vs after high-fat, standard or light meal; analysis of variance; assay type: in vivo, human; conditions: male, human, plasma, po, 105 mg, 105 mg oral, 2 hours after light meal; read-out: Cmax Median

Record Smiles	Cmax
CC1=NN(c2ccccc2)C(=O)C1	1960 ng/mL

----------
test: Clinical study #6: PK of edaravone oral formulation (formula #3) via PEG tube in ALS patients; assay type: in vivo, human; conditions: human, plasma; 105 mg via PEG tube, fasted, ALS patients, mean, before weight correction

Molecule	Result Unit	Tmax
CC1=NN(c2ccccc2)C(=O)C1 [Edaravone, 3-methyl-1-phenyl-2-pyrazolin-5-one]	min	19.8

----------
assay: Clinical study #2: PK of edaravone oral formulation (formula #2), fasted vs 4 h after high-fat meal; format: in vivo; conditions: male, human, plasma, 100 mg, 100 mg oral, formula #2, 4 h after high-fat meal, mean (n = 9)

Molecule	Tmax
CC1=NN(c2ccccc2)C(=O)C1 [Edaravone, 3-methyl-1-phenyl-2-pyrazolin-5-one]	28.2 min

----------
Assay: Clinical Trial #12: PK after oral administration of edaravone solution and suspension
Details: male, human, in vivo, Cohort S2, 120 mg, Suspension, fasting (N = 6), mean
Procedure: Whether or not there is an influence on pharmacokinetics by administering in forms of a solution and a suspension when administering edaravone orally was evaluated. Specifically, Clinical Trial #12 described below was conducted on healthy adult Japanese male subjects. Administration during the trial period was a single oral administration. […]
Assay Endpoint: Cmax (ng/mL)

Compound	Assay Endpoint	Result Unit	Observed
CC1=NN(c2ccccc2)C(=O)C1 [Edaravone, 3-methyl-1-phenyl-2-pyrazolin-5-one]	Cmax	ng/mL	1740

----------
experiment: Clinical study #11: PK of edaravone oral formulation (formula #3) via nasopharyngeal gastric tube vs oral in healthy adults; format: in vivo, human; conditions: human, plasma, other: nasopharyngeal gastric tube (NG tube), 105 mg, Nasopharyngeal gastric tube, analysis of variance; read-out: Cmax Least-square mean
Assay Endpoint: Cmax (ng/mL)

Molecule	Assay Endpoint	Observed
CC1=NN(c2ccccc2)C(=O)C1 [Edaravone, 3-methyl-1-phenyl-2-pyrazolin-5-one]	Cmax	2430

----------
experiment: Clinical study #11: PK of edaravone oral formulation (formula #3) via nasopharyngeal gastric tube vs oral in healthy adults; assay type: in vivo, human; conditions: human, plasma; formula #3 (105 mg), Oral, fasted (N = 36); read-out: tmax (median)
Assay Endpoint: Tmax (min)

Record Smiles	Assay Endpoint	Observed
CC1=NN(c2ccccc2)C(=O)C1	Tmax	30
